- Tested on: NCI-H520
- assay: relative viability (nuclei count vs DMSO), 5 days (fraction); higher = more cells survive
- assay conditions: first compound 0.253 µM
hey, just use Met if measured relative viability is less than 0.5, otherwise Not met

[
  {
    "compound": "Nc1cccc2c1CN(C1CCC(=O)NC1=O)C2=O (stereo unspecified) [Lenalidomide] + CS(=O)(=O)CCNCc1ccc(-c2ccc3ncnc(Nc4ccc(OCc5cccc(F)c5)c(Cl)c4)c3c2)o1 [Lapatinib] (partner 2 µM)",
    "label value": "Not met"
  },
  {
    "compound": "Nc1cccc2c1CN(C1CCC(=O)NC1=O)C2=O (stereo unspecified) [Lenalidomide] + CS(=O)(=O)N1CCN(Cc2cc3nc(-c4cccc5[nH]ncc45)nc(N4CCOCC4)c3s2)CC1 [Pictilisib] (partner 1 µM)",
    "label value": "Met"
  },
  {
    "compound": "Nc1cccc2c1CN(C1CCC(=O)NC1=O)C2=O (stereo unspecified) [Lenalidomide] + Cc1nc(NC(=O)N2CCC[C@H]2C(N)=O)sc1-c1ccnc(C(C)(C)C(F)(F)F)c1 [Alpelisib] (partner 2 µM)",
    "label value": "Not met"
  },
  {
    "compound": "Nc1cccc2c1CN(C1CCC(=O)NC1=O)C2=O (stereo unspecified) [Lenalidomide] + Nc1ncn([C@H]2C[C@H](O)[C@@H](CO)O2)c(=O)n1 [Decitabine] (partner 2 µM)",
    "label value": "Not met"
  },
  {
    "compound": "Nc1cccc2c1CN(C1CCC(=O)NC1=O)C2=O (stereo unspecified) [Lenalidomide] + N=C(N)NC(=N)NCCc1ccccc1 [Phenformin] (partner 250 µM)",
    "label value": "Not met"
  }
]

For the next question, use this compound.
### Prompt Does the reported relative viability of Nc1cccc2c1CN(C1CCC(=O)NC1=O)C2=O (stereo unspecified) [Lenalidomide] + O=C(c1cc(Cc2n[nH]c(=O)c3ccccc23)ccc1F)N1CCN(C(=O)C2CC2)CC1 [Olaparib] (partner 8 µM) stay below 0.5?
### Response Met

----------
Let's look at some compounds and their measured relative viability.
- Test system: NCI-H2009
- assay: relative viability (nuclei count vs DMSO), 5 days (fraction); higher = more cells survive
- assay conditions: first compound 0.006325 µM
# print the numeric value only

These recorded examples may help you get a feel for the data.
[
  {
    "compound": "CCNC(=O)c1noc(-c2cc(C(C)C)c(O)cc2O)c1-c1ccc(CN2CCOCC2)cc1 [Luminespib] + Nc1nc2[nH]cc(CCc3ccc(C(=O)N[C@@H](CCC(=O)O)C(=O)O)cc3)c2c(=O)[nH]1 [Pemetrexed] (partner 0.2 µM)",
    "assayed system": "NCI-H2009",
    "relative viability": 0.973
  },
  {
    "compound": "CCNC(=O)c1noc(-c2cc(C(C)C)c(O)cc2O)c1-c1ccc(CN2CCOCC2)cc1 [Luminespib] + Nc1ncn([C@H]2C[C@H](O)[C@@H](CO)O2)c(=O)n1 [Decitabine] (partner 2 µM)",
    "assayed system": "NCI-H2009",
    "relative viability": 0.364
  },
  {
    "compound": "CCNC(=O)c1noc(-c2cc(C(C)C)c(O)cc2O)c1-c1ccc(CN2CCOCC2)cc1 [Luminespib] + CS(=O)(=O)CCNCc1ccc(-c2ccc3ncnc(Nc4ccc(OCc5cccc(F)c5)c(Cl)c4)c3c2)o1 [Lapatinib] (partner 2 µM)",
    "assayed system": "NCI-H2009",
    "relative viability": 0.814
  }
]

### Prompt Value wanted: relative viability (NCI-H2009) of entry CCNC(=O)c1noc(-c2cc(C(C)C)c(O)cc2O)c1-c1ccc(CN2CCOCC2)cc1 [Luminespib] + O=C(CCCCCCC(=O)Nc1ccccc1)NO [Vorinostat] (partner 1 µM)
### Response 0.594
